Every entry's value here was drawn from PubChem BioAssay (NCI).

Test system: IGROV1 ovarian
Experiment: NCI-60 one-dose screen, 48 h
Settings: 10 µM unless noted
Compounds without any hit were thinned out: in the full panel of roughly 83,000, 20% have a hit. Activity calls are given as the source filed them. The calls were made as follows: active = growth percent below 10; inactive = the rest.
Outcome codes: true (1) for active, false (0) for inactive

[
  {
    "compound": "CC(=O)c1cc2c(N)c(C(=O)Nc3ccccn3)sc2nc1C",
    "class": "false (0)"
  },
  {
    "compound": "C=C1C(=O)O[C@H]2[C@H]1CC/C(COC(=O)N1CCC[C@H]1C(=O)Nc1ccc(OC)c(C(N)=O)c1O)=C\\CC[C@@]1(C)O[C@@H]21",
    "class": "false (0)"
  },
  {
    "compound": "C#C[C@@]1(O)[C@@H](CO)O[C@@H](n2cc(-c3ccco3)c3c(N)ncnc32)[C@@H]1O",
    "class": "true (1)"
  },
  {
    "compound": "O=C(/C(=C/c1ccc([N+](=O)[O-])cc1)SCc1ccc(Cl)cc1)c1ccc(F)cc1",
    "class": "false (0)"
  },
  {
    "compound": "Cc1nc2sc(C(=O)Nc3ccccc3Cl)c(N)c2cc1C(C)O (stereo not drawn)",
    "class": "false (0)"
  },
  {
    "compound": "COc1ccc2cc(/C=C3\\N=C(c4cc(OC)c(OC)c(OC)c4)OC3=O)c(OC)nc2c1",
    "class": "false (0)"
  },
  {
    "compound": "NC[C@@H]1CCN(c2cc3c(cc2F)c(=O)n(N)c(=O)n3Cc2ccc(-c3ccccc3)cc2)C1",
    "class": "false (0)"
  },
  {
    "compound": "Nc1ccc(C2=NN(C(=O)c3cc(-c4ccc(Cl)cc4)nc4ccccc34)C(c3ccc(Cl)cc3)C2)cc1 (stereo not drawn)",
    "class": "false (0)"
  }
]
